Recorded GI50, one value per entry.
# System: KM12
# Assay comment: NCI tumour cell line growth inhibition, 48 h
Calls of active or inactive are those of the source. No stated cut-off is given here; in the data, active = GI50 up to about 1.1 µM and inactive = higher.

Below, 4 molecules whose answers are already recorded.
- Molecule: "CCNC(=O)c1c(O)nc2ccccc2c1O"
  Measurement: "97.7 µM (inactive)"
- Molecule: "COC1C(O)=C2C(=O)O/C(C)=C/C=C/C=C/C=C\\CC(c3ccccc3)NC(=O)\\C=C/C=C\\C=C\\C=C\\[C@@]2(C)[C@@H]1O (stereo not given in full)"
  Measurement: "< 0.0146 µM (active)"
- Molecule: "O=C(NCCNCCO)N/N=C/c1ccc(Cl)cc1"
  Measurement: "> 100 µM (inactive)"
- Molecule: "Nc1nnc(N)n1N"
  Measurement: "> 100 µM (inactive)"

So what does the record say about GI50 for c1ccc(C(NC2=NCCO2)C2CC2)cc1 (stereo not given) ?
> 100 µM (inactive)

So what does the record say about GI50 for COC(=O)[C@@H]1O[C@]12[C@@H](CO[Si](C)(C)C(C)(C)C)O[C@@H](n1cc(C)c(=O)[nH]c1=O)[C@@H]2O[Si](C)(C)C(C)(C)C ?
23 µM (inactive)

* * *

# System: SR
# Assay comment: NCI tumour cell line growth inhibition, 48 h
The source made the active and inactive calls. No stated cut-off is given here; in the data, active = GI50 up to about 1.1 µM and inactive = higher.
Value kind: GI50

Below, 3 compounds whose answers are already recorded.
- Compound: "COc1ccc(C2=Nn3c(C)nnc3S/C2=C\\c2ccc(-c3ccc([N+](=O)[O-])cc3)o2)cc1"
  Value kind: "GI50"
  Measurement: "3.21 µM (inactive)"
- Compound: "O=C1/C(=N\\NC(=S)Nc2ccc(Cl)cc2)c2cc([N+](=O)[O-])ccc2N1CN1CCOCC1"
  Value kind: "GI50"
  Measurement: "1.99 µM (inactive)"
- Compound: "C[C@]12CC[C@@H]3c4ccc(O)cc4CC[C@H]3[C@@H]1C/C(=C\\c1ccncc1)C2=O"
  Value kind: "GI50"
  Measurement: "6.32 µM (inactive)"

So what does the record say about GI50 for Sc1nnc(SCc2ccccc2Cl)c2nc[nH]c12 ?
> 100 µM (inactive)

So what does the record say about GI50 for O=C1CC(C(OCc2ccccc2)C(OCc2ccccc2)C(OCc2ccccc2)C(COCc2ccccc2)OCc2ccccc2)CC(=O)N1 (centres undefined) ?
> 100 µM (inactive)

So what does the record say about GI50 for C=C1CCC[C@@H](C)C(O)[C@@H]2OC(=O)C(=C)[C@@H]2C[C@@H](OC(C)=O)[C@@]2(C)CC[C@@H]1O2 (some centres undefined) ?
1.75 µM (inactive)

So what does the record say about GI50 for CCOC(=O)C1(C(=O)OCC)C[C@H](C)[C@](C)(O)C1 ?
> 100 µM (inactive)

So what does the record say about GI50 for COc1ccc(N[C@H]([C@@H](c2ccccc2)[S+]([O-])c2ccc(C)cc2)C(F)(F)F)cc1 (some centres undefined) ?
> 100 µM (inactive)

So what does the record say about GI50 for CC1(O)OC(=O)C2=C1CCC1C2CCC2(C)C(O)CCC12 (centres undefined) ?
> 100 µM (inactive)

So what does the record say about GI50 for COc1ccc(Cn2c(=O)c(OS(=O)(=O)C(F)(F)F)c(C)c3cc4ccccc4cc32)cc1 ?
> 100 µM (inactive)

So what does the record say about GI50 for Oc1ccc(-c2nc3cc(C(F)(F)F)ccc3s2)cc1 ?
15.8 µM (inactive)

So what does the record say about GI50 for Nc1ccccc1/N=C/c1cc2cc([N+](=O)[O-])ccc2s1 ?
11 µM (inactive)

* * *

# Tested on: IGROV-1
# Assay comment: NCI tumour cell line growth inhibition, 48 h
Activity calls are given as the source filed them. No stated cut-off is given here; in the data, active = GI50 up to about 1.1 µM and inactive = higher.
Value kind: GI50

Below, 5 compounds whose answers are already recorded.
- Compound: "C=C1c2c(cc3c(c2O)c(=O)c2ccccc2n3C)OC1(C)C"
  GI50: "32.7 µM (inactive)"
- Compound: "COC(=O)/C=C1\\C(=O)N(C(C)=O)c2ccc(Br)cc21"
  GI50: "7.6 µM (inactive)"
- Compound: "C[Si](C)(C)CN1C(=O)c2ccccc2C1(O)c1ccccc1 (stereo unspecified)"
  GI50: "99.5 µM (inactive)"
- Compound: "Nc1nc2c(=O)c3ccccc3sc2s1"
  GI50: "43.2 µM (inactive)"
- Compound: "COC1C(O)=C2C(=O)O/C(C)=C/C=C/C=C/C=C\\CC(c3ccccc3)NC(=O)\\C=C/C=C\\C=C\\C=C\\[C@@]2(C)[C@@H]1O (stereo partly specified)"
  GI50: "< 0.0211 µM (active)"

Turning now to a further compound:
So what does the record say about GI50 for COc1ccc(-c2c(/C=N/OCC(=O)O)c3sc4ccccc4n3c2/C=N/OCC(=O)O)cc1 ?
> 50 µM (inactive)

* * *

# Test system: PC-3
# Assay comment: NCI tumour cell line growth inhibition, 48 h
Active and inactive are the calls of the source. No stated cut-off is given here; in the data, active = GI50 up to about 1.1 µM and inactive = higher.
Hi there, use one of these labels in your reply, thanks! TRUE = active, FALSE = inactive

In this assay, the call recorded for C[Si](C)(C)C#Cc1cc(-c2nc3ccccc3s2)ccc1N was what?
FALSE

In this assay, the call recorded for COc1cc(NC(C)CCCN)c2ncccc2c1 (stereo unspecified) [PRIMAQUINE PHOSPHATE] was what?
FALSE

In this assay, the call recorded for C#CCOC(=O)c1ccccc1OC(C)=O was what?
FALSE

In this assay, the call recorded for Cc1c2cnccc2c(C)c2c1c1ccccc1n2CCOC(=O)c1ccccc1 was what?
FALSE

In this assay, the call recorded for CCOC(=O)c1cccc(NC(=O)CI)c1 was what?
FALSE

In this assay, the call recorded for Nc1nc2c(=O)c3ccccc3sc2s1 was what?
FALSE

In this assay, the call recorded for CC(=O)Nc1ccc2cc(C#N)c(=O)[nH]c2n1 was what?
FALSE

* * *

# Test system: SK-OV-3
# Assay comment: NCI tumour cell line growth inhibition, 48 h
Active and inactive are the calls of the source. Rule as the data show it: active = GI50 up to about 1.1 µM and inactive = higher.
Value kind: GI50

Below, 3 compounds whose answers are already recorded.
- Compound: "COc1ccc(C(=O)/C=C/c2cc(O)c(O)cc2F)c(OC)c1"
  GI50: "10.6 µM (inactive)"
- Compound: "Nc1ncnc2c1ncn2C(=O)NC12CC3CC(CC(C3)C1)C2"
  GI50: "> 100 µM (inactive)"
- Compound: "CCCCCCCCCCCCCP(=O)(OC)OC"
  GI50: "19 µM (inactive)"

So what does the record say about GI50 for COc1ccc(C2=Nn3c(C)nnc3S/C2=C\c2ccc(-c3ccc([N+](=O)[O-])cc3)o2)cc1 ?
64.1 µM (inactive)

So what does the record say about GI50 for COC(=O)C(=O)C(C(=O)C(=O)Nc1ccc([N+](=O)[O-])cc1[N+](=O)[O-])c1nc2ccc(Cl)cc2nc1O (stereo not drawn) ?
> 100 µM (inactive)

So what does the record say about GI50 for C=C1c2c(cc3c(c2O)c(=O)c2ccccc2n3C)OC1(C)C ?
20 µM (inactive)

So what does the record say about GI50 for COC12COC(=O)C1C(c1ccc3c(c1)OCO3)c1cc3c(cc1O2)OCO3 (stereo not drawn) ?
14.2 µM (inactive)

So what does the record say about GI50 for Nc1nnc(N)n1N ?
> 100 µM (inactive)

* * *

# Tested on: IGROV-1
# Assay comment: NCI tumour cell line growth inhibition, 48 h
Calls of active or inactive are those of the source. No stated cut-off is given here; in the data, active = GI50 up to about 1.1 µM and inactive = higher.
Hi there, use one of these labels in your reply, thanks! 1 (active), -1 (inactive)

Use these answered entries as a reference point.
- Compound: "CSc1c(C#N)c(N)n(-c2ccc(Cl)cc2)c(=O)c1C#N"
  Answer label: -1
- Compound: "Clc1ccc(C(SCc2ccccc2)SCc2ccccc2)cc1"
  Answer label: -1
- Compound: "COc1ccc(/C=C(/c2ccc(OC)cc2)c2c(Cl)cc(Cl)c(/C(=C\\c3ccc(OC)cc3)c3ccc(OC)cc3)c2/N=N/c2ccccc2)cc1"
  Answer label: -1
- Compound: "COC(=O)N/N=C(/CC1(O)C(=O)Nc2ccc([N+](=O)[O-])cc21)c1ccccc1 (stereo not given)"
  Answer label: -1

Okay, next one:
In this assay, the call recorded for Cn1c(-c2ccc[se]2)ccc1-c1ccc(CO)[se]1 was what?
1

* * *

# Test system: DMS-114
# Assay comment: NCI tumour cell line growth inhibition, 48 h
Activity calls are given as the source filed them. Cut-off read from the data, not from the text of the source: active = GI50 up to about 1.1 µM and inactive = higher.
Value kind: GI50

Below, 5 compounds whose answers are already recorded.
- Compound: "CN(C)[C@@H]1C(O)=C(C(N)=O)C(=O)[C@@]2(O)C(O)=C3C(=O)c4c(O)cccc4C[C@H]3C[C@@H]12"
  GI50: "2.52 µM (inactive)"
- Compound: "CC(C)(CN1CCCCC1)C(=O)/C=C/c1ccc(Cl)c(Cl)c1"
  GI50: "1.56 µM (inactive)"
- Compound: "c1ccc(-c2sc(-c3ccccc3)c3c2C(c2ccccc2)c2c(-c4ccccc4)sc(-c4ccccc4)c2C3c2ccccc2)cc1 (stereo unspecified)"
  GI50: "> 100 µM (inactive)"
- Compound: "CCCN/C(N)=N/C#N"
  GI50: "19.4 µM (inactive)"
- Compound: "CN1N=C2c3ccccc3CC[C@H]2C1c1ccccc1 (stereo partly specified)"
  GI50: "22.5 µM (inactive)"

So what does the record say about GI50 for CC(C)NCCNC(=O)c1ccccc1Nc1c(Cl)cccc1Cl ?
10.9 µM (inactive)

So what does the record say about GI50 for Nc1nnc(N)n1N ?
> 100 µM (inactive)

So what does the record say about GI50 for Nc1ccc(C(=O)N/C(=C\c2cccc([N+](=O)[O-])c2)c2nc3ccccc3[nH]2)cc1 ?
29.4 µM (inactive)

So what does the record say about GI50 for CCOC(=O)[C@H]1Nc2ccccc2C2c3ccccc3CC21 (stereo partly specified) ?
88.1 µM (inactive)

So what does the record say about GI50 for CC12CC[C@H](O)C(C)(C)[C@H]1CC[C@](C)(O)C2COc1ccc2ccc(=O)oc2c1 (stereo partly specified) ?
85.3 µM (inactive)

So what does the record say about GI50 for COC(=O)C1=CC2C(=O)OC1C1C(=O)NC(=O)C21 (stereo unspecified) ?
> 100 µM (inactive)

So what does the record say about GI50 for CN1c2ccccc2N(C)C2C1N(C)c1ccccc1N2C (stereo unspecified) ?
5.71 µM (inactive)

So what does the record say about GI50 for O=C(Cn1cc(I)c(C(=O)NCC(O)CO)n1)NCC(O)CO (stereo unspecified) ?
> 100 µM (inactive)

So what does the record say about GI50 for O=C(/C=C\c1cccc2ccccc12)c1ccc(F)cc1 ?
14.4 µM (inactive)

So what does the record say about GI50 for COC(=O)c1ccc(CS(=O)(=O)c2ccccc2)cc1 ?
64.3 µM (inactive)

So what does the record say about GI50 for COc1ccc(C2=NN(c3ccccc3)C[N+](c3ccc(OC)cc3)=N2)cc1 ?
24.2 µM (inactive)

So what does the record say about GI50 for C=C=C[P+](c1ccccc1)(c1ccccc1)c1ccccc1 ?
8.69 µM (inactive)

So what does the record say about GI50 for CCOC(=O)C(=O)/C=C(\C)Nc1c(NC2OCC(OC(C)=O)C(OC(C)=O)C2OC(C)=O)nc(SC)[nH]c1=O (stereo unspecified) ?
> 100 µM (inactive)
